Measured pIC50 by item
biological target: CB1 receptor (Homo sapiens, UniProt P21554); experiment: CB1 cAMP Antagonist Assay (LANCE Ultra cAMP kit); type: cell-based; settings: Flp-In CHO cells stably expressing the CB1 receptor; forskolin and CP55940 agonist at EC90; cAMP FRET readout
Sequence (P21554 whole entry): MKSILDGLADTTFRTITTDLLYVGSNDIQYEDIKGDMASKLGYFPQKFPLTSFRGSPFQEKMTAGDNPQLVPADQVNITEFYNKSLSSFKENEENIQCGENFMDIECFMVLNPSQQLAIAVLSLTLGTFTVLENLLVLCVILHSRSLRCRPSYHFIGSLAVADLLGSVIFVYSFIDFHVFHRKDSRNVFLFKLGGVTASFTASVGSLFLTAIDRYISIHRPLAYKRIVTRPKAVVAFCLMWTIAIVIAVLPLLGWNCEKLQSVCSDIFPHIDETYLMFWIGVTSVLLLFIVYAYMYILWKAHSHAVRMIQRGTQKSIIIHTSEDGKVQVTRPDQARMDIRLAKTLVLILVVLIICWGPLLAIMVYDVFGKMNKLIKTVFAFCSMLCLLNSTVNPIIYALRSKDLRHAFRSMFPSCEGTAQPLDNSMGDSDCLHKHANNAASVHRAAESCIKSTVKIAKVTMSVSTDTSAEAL
pIC50: −log10 of the molar value.

The value of pIC50 measured for the compound O=c1n(Cc2ccc(Cl)cc2)nc(N2CC3(CCc4ccccc43)C(c3ccc(Cl)cc3)=N2)n1CCO (stereo in doubt) [Compound 121] turned out to be 6.00 to 7.00

Reported pIC50 ( `Cn1c(N2C[C@@]3(CCc4ccccc43)C(c3ccc(Cl)cc3)=N2)nn(Cc2ccc(Cl)cc2)c1=O` ) = 5.30 to 6.00

For `Cn1nc(N2C[C@@]3(CCc4ccccc43)C(c3ccc(Cl)cc3)=N2)n(C)c1=O` the compound record lists pIC50 as 5.30 to 6.00

Quick note, pIC50 for `Cn1c(N2C[C@H](c3ccccc3)C(c3ccc(Cl)cc3)=N2)nn(CCc2ccc(C(N)=O)cc2)c1=O` landed at 6.00 to 7.00

Next:
Per the records, this compound ( COc1ccc(Cn2nc(N3CC(c4ccccc4)C(c4ccc(Cl)cc4)=N3)n([C@@H](C)C(N)=O)c2=O)cc1OC (stereo partly shown) ) has pIC50 equal to 6.00 to 7.00

Sure, the documented pIC50 for CC(C(N)=O)n1c(N2C[C@H](c3ccccc3)C(c3ccc(Cl)cc3)=N2)nn(Cc2ccc(CN3CCOCC3)cc2)c1=O (stereo partly shown) is 6.00 to 7.00

The compound identified as `Cn1c(N2C[C@@H](c3ccccc3)C(c3ccc(Cl)cc3)=N2)nn(CCc2ccc(C(N)=O)cc2)c1=O` registered its pIC50 at < 5.30

The value of pIC50 measured for the compound `C[C@@H](C(=O)NCCO)n1c(N2C[C@H](c3ccccc3)C(c3ccc(Cl)cc3)=N2)nn(Cc2ccc(Cl)cc2)c1=O` turned out to be > 7.00

The compound listed as `O=c1n(-c2ccc(Cl)cc2)nc(N2C[C@]3(CCc4ccccc43)C(c3ccc(Cl)cc3)=N2)n1CCO` has a reported pIC50 of 6.00 to 7.00

The compound identified as `C[C@H](C(N)=O)n1c(N2C[C@@H](c3ccccc3)C(c3ccc(Cl)cc3)=N2)n[nH]c1=O` registered its pIC50 at < 5.30

# compound `Cn1c(N2C[C@@H](c3ccccc3)C(c3ccc(Cl)cc3)=N2)n[nH]c1=O` ; its pIC50 = < 5.30

pIC50 reading for COCCn1c(N2CC3(CCc4ccccc43)C(c3ccc(Cl)cc3)=N2)nn(Cc2ccc(Cl)cc2)c1=O (stereo in doubt) [Compound 120] : 5.30 to 6.00

For `NC(=O)Cn1c(N2C[C@H](c3ccccc3)C(c3ccc(Cl)cc3)=N2)nn(Cc2ccc(CN3CCOCC3)cc2)c1=O` the compound record lists pIC50 as 6.00 to 7.00

Value of measured pIC50 for the entry `C[C@H](C(N)=O)n1c(N2C[C@H](c3ccccc3)C(c3ccc(Cl)cc3)=N2)n[nH]c1=O` : < 5.30

Lab note: `O=c1[nH]nc(N2C[C@H](c3ccccc3)C(c3ccc(Cl)cc3)=N2)[nH]1` gave pIC50 of < 5.30

Looking up Cn1c(N2CC3(CCc4ccccc43)C(c3ccc(Cl)cc3)=N2)nn(CC2CCCCC2)c1=O (stereo in doubt) [Compound 139] , I see its pIC50 listed as 6.00 to 7.00

---

biological target: CB1 receptor (Homo sapiens); assay: CB1 cAMP Antagonist Assay (LANCE Ultra cAMP kit); conditions: Flp-In CHO cells stably expressing the CB1 receptor; forskolin and CP55940 agonist at EC90; cAMP FRET readout
pIC50: −log10 of the molar value.
The compounds listed here are annotated with their pIC50.

# pIC50 of COCCn1c(N2CC3(CCc4ccccc43)C(c3ccc(Cl)cc3)=N2)nn(Cc2ccc(Cl)cc2)c1=O (stereo in doubt) [Compound 123] = 6.00 to 7.00

Just so you know, measured pIC50 for `NC(=O)Cn1c(N2C[C@]3(CCc4ccccc43)C(c3ccc(Cl)cc3)=N2)nn(-c2ccc(Cl)cc2)c1=O` came out at 6.00 to 7.00

Recorded result, `NC(=O)CCn1c(N2C[C@@]3(CCc4ccccc43)C(c3ccc(Cl)cc3)=N2)nn(-c2ccc(Cl)cc2)c1=O` , pIC50: < 5.30

---
Lab note: measured pIC50 of `Cn1c(N2C[C@@H](c3ccccc3)C(c3ccc(Cl)cc3)=N2)nn(-c2ccc(Cl)cc2)c1=O` was < 5.30

---

target: CB1 receptor (Homo sapiens); experiment: CB1 cAMP Antagonist Assay (LANCE Ultra cAMP kit); conditions: Flp-In CHO cells stably expressing the CB1 receptor; forskolin and CP55940 agonist at EC90; cAMP FRET readout
property_name: IC50

Entry `O=c1n(-c2ccc(Cl)cc2)nc(N2C[C@@]3(CCc4ccccc43)C(c3ccc(Cl)cc3)=N2)n1CCO` , IC50 reported as > 5000 nM

IC50 reported for this compound `Cn1c(N2C[C@@H](c3ccccc3)C(c3ccc(Cl)cc3)=N2)nn(CCc2ccc(C(=O)NCCO)cc2)c1=O` : > 5000 nM

Data point: `C[C@@H](C(N)=O)n1c(N2C[C@@H](c3ccccc3)C(c3ccc(Cl)cc3)=N2)nn(Cc2ccc(Cl)cn2)c1=O` ; IC50 = 100 to 1000 nM
